# System: HELAN = sunflower (Helainthus annuus)
# MEASUREMENT_NOTES: General postemergence herbicidal activity, sunflower
# Assay type: in vivo
# TEST_CONTEXT: post-emergence, 336 h; post-emergent, 140 g ai/ha, visual score after 14 days (0 no injury, 100 complete kill)
Each entry below carries its recorded pest or weed control at 140 g/ha.

{"SMILES_TEXT": "COc1c(Cl)ccc(-c2nc(N)c(Br)c(C(=O)O)n2)c1F", "pest or weed control at 140 g/ha / %": 100}
{"SMILES_TEXT": "COC(=O)c1nc(-c2ccc(Cl)c(C(F)F)c2F)nc(N)c1Cl", "pest or weed control at 140 g/ha / %": 100}
{"SMILES_TEXT": "CCOc1c(Cl)ccc(-c2nc(N)c(Cl)c(C(=O)O)n2)c1F", "pest or weed control at 140 g/ha / %": 95}
{"SMILES_TEXT": "COC(=O)c1nc(-c2ccc3c(c2F)OCO3)nc(N)c1Cl", "pest or weed control at 140 g/ha / %": 100}
{"SMILES_TEXT": "COC(=O)c1nc(-c2cc(OC)c(Cl)cc2F)nc(N)c1Cl", "pest or weed control at 140 g/ha / %": 95}
{"SMILES_TEXT": "CN(C)c1c(Cl)ccc(-c2nc(N)c(Cl)c(C(=O)O)n2)c1F", "pest or weed control at 140 g/ha / %": 95}
{"SMILES_TEXT": "COC(=O)c1nc(-c2ccc(Cl)c(OC)c2F)nc(N)c1Br", "pest or weed control at 140 g/ha / %": 100}
{"SMILES_TEXT": "COc1c(Cl)ccc(-c2nc(N)c(Cl)c(C(=O)O)n2)c1F", "pest or weed control at 140 g/ha / %": 100}
{"SMILES_TEXT": "COC(=O)c1nc(-c2c(F)cc(Cl)c(OC)c2F)nc(N)c1Cl", "pest or weed control at 140 g/ha / %": 100}
{"SMILES_TEXT": "COC(=O)c1nc(-c2ccc(Cl)c(OC)c2Cl)nc(N)c1Cl", "pest or weed control at 140 g/ha / %": 100}
{"SMILES_TEXT": "COC(=O)c1nc(-c2ccc(Cl)c(OC)c2F)nc(N)c1F", "pest or weed control at 140 g/ha / %": 100}
{"SMILES_TEXT": "COC(=O)c1nc(-c2ccc(Cl)c(C)c2F)nc(N)c1Cl", "pest or weed control at 140 g/ha / %": 100}
{"SMILES_TEXT": "Cc1c(Cl)ccc(-c2nc(N)c(Cl)c(C(=O)O)n2)c1F", "pest or weed control at 140 g/ha / %": 100}
